study_system: Endoribonuclease Dicer (Homo sapiens) (UniProt Q9UPY3)
Sequence (Q9UPY3 whole entry, looked up): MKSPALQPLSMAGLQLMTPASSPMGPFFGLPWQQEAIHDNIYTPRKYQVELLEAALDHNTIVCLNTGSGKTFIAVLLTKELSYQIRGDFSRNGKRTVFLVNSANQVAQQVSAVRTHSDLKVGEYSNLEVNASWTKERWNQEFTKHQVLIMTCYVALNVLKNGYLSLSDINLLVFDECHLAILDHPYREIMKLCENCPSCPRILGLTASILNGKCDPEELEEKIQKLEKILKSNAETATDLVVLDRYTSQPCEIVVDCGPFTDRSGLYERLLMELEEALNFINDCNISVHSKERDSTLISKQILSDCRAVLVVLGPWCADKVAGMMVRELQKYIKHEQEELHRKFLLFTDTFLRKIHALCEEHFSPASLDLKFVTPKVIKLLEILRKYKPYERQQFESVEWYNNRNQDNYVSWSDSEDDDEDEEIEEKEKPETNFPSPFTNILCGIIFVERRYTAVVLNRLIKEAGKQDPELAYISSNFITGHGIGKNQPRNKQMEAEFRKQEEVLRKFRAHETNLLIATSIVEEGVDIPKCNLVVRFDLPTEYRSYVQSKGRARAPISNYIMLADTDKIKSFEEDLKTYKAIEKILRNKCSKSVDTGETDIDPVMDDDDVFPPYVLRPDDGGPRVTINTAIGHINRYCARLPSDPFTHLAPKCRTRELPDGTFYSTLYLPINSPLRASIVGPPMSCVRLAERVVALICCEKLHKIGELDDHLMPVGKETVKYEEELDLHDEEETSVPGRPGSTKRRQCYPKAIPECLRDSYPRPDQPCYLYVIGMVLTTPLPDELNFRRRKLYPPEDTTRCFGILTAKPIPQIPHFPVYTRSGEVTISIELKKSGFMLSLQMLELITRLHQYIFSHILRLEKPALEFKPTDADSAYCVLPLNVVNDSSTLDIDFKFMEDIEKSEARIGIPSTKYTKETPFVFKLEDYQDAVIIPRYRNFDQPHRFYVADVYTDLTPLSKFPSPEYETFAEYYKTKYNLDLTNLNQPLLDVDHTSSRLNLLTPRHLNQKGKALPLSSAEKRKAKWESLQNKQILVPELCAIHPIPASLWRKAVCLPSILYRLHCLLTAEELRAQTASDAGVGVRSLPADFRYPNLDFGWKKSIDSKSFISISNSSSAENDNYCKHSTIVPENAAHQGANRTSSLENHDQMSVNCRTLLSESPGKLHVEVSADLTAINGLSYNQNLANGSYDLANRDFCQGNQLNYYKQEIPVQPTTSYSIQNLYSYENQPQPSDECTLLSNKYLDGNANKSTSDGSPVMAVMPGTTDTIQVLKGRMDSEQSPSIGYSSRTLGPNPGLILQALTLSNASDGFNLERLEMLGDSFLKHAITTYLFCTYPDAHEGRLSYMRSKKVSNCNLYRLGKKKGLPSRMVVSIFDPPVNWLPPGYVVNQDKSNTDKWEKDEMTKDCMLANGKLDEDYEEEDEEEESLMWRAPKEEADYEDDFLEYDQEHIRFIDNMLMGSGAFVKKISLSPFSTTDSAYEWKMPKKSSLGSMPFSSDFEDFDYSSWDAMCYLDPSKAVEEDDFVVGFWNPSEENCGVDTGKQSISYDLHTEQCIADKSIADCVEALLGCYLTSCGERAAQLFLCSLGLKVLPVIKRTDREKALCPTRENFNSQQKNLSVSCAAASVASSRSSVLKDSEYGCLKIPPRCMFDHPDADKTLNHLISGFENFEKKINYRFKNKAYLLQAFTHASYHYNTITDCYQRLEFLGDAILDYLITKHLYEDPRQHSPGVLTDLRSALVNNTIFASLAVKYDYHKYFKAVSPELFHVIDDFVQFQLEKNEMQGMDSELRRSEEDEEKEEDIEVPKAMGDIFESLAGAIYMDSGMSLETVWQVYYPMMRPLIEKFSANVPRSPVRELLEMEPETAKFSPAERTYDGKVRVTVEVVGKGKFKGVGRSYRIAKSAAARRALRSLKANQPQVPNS
measurement_protocol: Dicer cleavage of pre-miR-21 blockers – biochemical, cat-ELCCA, chemiluminescence, primary screen (AID 1347074);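 further: higher signal means more uncleaved substrate so more Dicer inhibition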
condition: cat-ELCCA pre-miR-21 Dicer processing, at 25 µM, hits give high values
Out of some 47,000 compounds screened, about 2,800 (6%) were called active. The list comes from a sample in which actives are over-represented; it also holds close analogues and randomly drawn compounds.
Each entry gets rule not met if its z-score stays under 1, and rule met if its z-score is 1 or above.

Check out these entries, answers already filled in.
| molecule | study_system | answer_label |
| --- | --- | --- |
| CCOC(=O)N1CCc2c(sc3c2C(=O)NC(c2ccccc2F)N3)C1 (stereo unspecified) | Endoribonuclease Dicer (Homo sapiens) (UniProt Q9UPY3) | rule met |
| S=c1nn[nH]n1-c1ccc(Cl)cc1Cl | Endoribonuclease Dicer (Homo sapiens) (UniProt Q9UPY3) | rule not met |

Query: Exam item: decide whether the reported z-score for CCCCN(CC)c1ncnc2ccc(C)cc12 is at least 1.
Response: rule met

Query: Exam item: decide whether the reported z-score for CSC(=Nc1cc(C(F)(F)F)cc(C(F)(F)F)c1)N1CCCCC1 is at least 1.
Response: rule met

Query: Exam item: decide whether the reported z-score for COc1ccc(Nc2nc3ccccc3nc2NS(=O)(=O)c2ccccc2)cc1OC is at least 1.
Response: rule met

Query: Exam item: decide whether the reported z-score for Cc1ccc(O)c(C2=NN3C(C2)c2cc(Cl)ccc2OC3c2ccncc2)c1 (stereo unspecified) is at least 1.
Response: rule not met

Query: Exam item: decide whether the reported z-score for COc1ccc(-c2noc(-c3ccc(Cl)cc3)n2)cc1OC1CCCC1 is at least 1.
Response: rule not met

Query: Exam item: decide whether the reported z-score for Oc1ccccc1C1=NN2C(C1)c1cc(Br)ccc1OC2c1ccncc1 (stereo unspecified) is at least 1.
Response: rule met

Query: Exam item: decide whether the reported z-score for CCCCc1c(COC)nc(-c2ccc(Cl)cc2)[nH]c1=O is at least 1.
Response: rule met

Query: Exam item: decide whether the reported z-score for Cc1nc(-c2ccc(C(F)(F)F)cc2)[nH]c(=O)c1Oc1ccc(Cl)cc1Cl is at least 1.
Response: rule not met

Query: Exam item: decide whether the reported z-score for COc1ccc(O)c(C2=NN3C(C2)c2cc(Cl)ccc2OC3c2cccnc2)c1 (stereo unspecified) is at least 1.
Response: rule not met

====

study_system: Endoribonuclease Dicer (Homo sapiens) (UniProt Q9UPY3)
measurement_protocol: Dicer cleavage of pre-miR-21 blockers – biochemical, cat-ELCCA, chemiluminescence, primary screen (AID 1347074);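 further: higher signal means more uncleaved substrate so more Dicer inhibition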
condition: cat-ELCCA pre-miR-21 Dicer processing, at 25 µM
Out of some 47,000 compounds screened, about 2,800 (6%) were called active. Cut-off read from the data, not from the text of the source: active = z-score above about 3 (passing the limit was not always enough); inactive = the rest. Shown is part of a subset that was picked to be rich in actives.
Pick one: active, inactive

Check out these entries, answers already filled in.
| molecule | study_system | answer_label |
| --- | --- | --- |
| O=c1oc2ccccc2c2c1ncn2CCCN1CCOCC1 | Endoribonuclease Dicer (Homo sapiens) (UniProt Q9UPY3) | inactive |
| Nc1cc(=O)[nH]c(SCC(=O)Nc2ccccc2F)n1 | Endoribonuclease Dicer (Homo sapiens) (UniProt Q9UPY3) | inactive |
| CN(C)CCN1C(=O)C(=O)/C(=C(/O)c2ccc(F)cc2)C1c1cccs1 (stereo unspecified) | Endoribonuclease Dicer (Homo sapiens) (UniProt Q9UPY3) | inactive |
| CCOC(=O)c1ccc(NC(=S)N(Cc2ccccc2)C(C)C)cc1 | Endoribonuclease Dicer (Homo sapiens) (UniProt Q9UPY3) | inactive |
| COC(=O)c1ccc(/C=C/c2nc3cc(C)c(C)cc3o2)cc1 | Endoribonuclease Dicer (Homo sapiens) (UniProt Q9UPY3) | inactive |
| O=C(NCCC(O)C(=O)O)OCc1ccccc1 (stereo unspecified) | Endoribonuclease Dicer (Homo sapiens) (UniProt Q9UPY3) | inactive |

Query: Hey, what did the test say about c1ccc2c(-c3csc(-c4ccc5c(c4)OCCO5)n3)csc2c1 ?
Response: inactive

Query: Hey, what did the test say about N#Cc1sc(SCc2ccccc2)c2c1CC(c1ccccc1)CC2=O (stereo unspecified) ?
Response: inactive

Query: Hey, what did the test say about Cc1nc2ccccc2n1C1CC(=O)N(c2ccccc2)C1=O (stereo unspecified) ?
Response: inactive

Query: Hey, what did the test say about COC(=O)c1c(C)oc2ccc(N(C(=O)Oc3ccccc3)S(=O)(=O)c3ccccc3)cc12 ?
Response: inactive

Query: Hey, what did the test say about COc1ccccc1-c1coc2cc(OC(=O)c3ccccc3Cl)ccc2c1=O ?
Response: inactive

Query: Hey, what did the test say about CC(Oc1cccc2c(=O)c3ccccc3oc12)C(=O)O (stereo unspecified) ?
Response: inactive

Query: Hey, what did the test say about O=c1n(Cc2ccccc2)c2ccccc2n1Cc1ccccc1 ?
Response: inactive

Query: Hey, what did the test say about O=C1C(=O)N(CCCn2ccnc2)C(c2ccncc2)/C1=C(\O)c1ccc(Cl)cc1 (stereo unspecified) ?
Response: inactive

Query: Hey, what did the test say about CCCCC(=O)N(c1ccc2oc(=O)sc2c1)S(=O)(=O)c1ccc(F)cc1 ?
Response: active

Query: Hey, what did the test say about CCCc1cc(-c2n[nH]c(C)c2-c2ccc3c(c2)OCCO3)c(O)cc1O ?
Response: active

Query: Hey, what did the test say about CCc1ccc(C2c3c(oc4ccc(C)cc4c3=O)C(=O)N2c2nccs2)cc1 (stereo unspecified) ?
Response: inactive

Query: Hey, what did the test say about Cc1oc(C(C)(C)C)cc1C(=O)Nc1ccc(SCc2cccc(Cl)c2F)cc1 ?
Response: inactive

Query: Hey, what did the test say about O=C(O)Cc1ccc(-c2ccccc2)cc1 ?
Response: inactive
